B1: ATE1 (parent)
chain: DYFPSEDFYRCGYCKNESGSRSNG

Variants of: B1
Assay: protein stability index of a GFP-peptide fusion (GPS, HEK-293T) (PSI 1-6); higher = more stable;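 also: lentivirally expressed fusions sorted by FACS into six bins by GFP to DsRed ratio, PSI derived from sequencing read proportions per bin multiplied by bin number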
Settings: c terminus: a fixed tail appended
Give met when the value for protein stability index is at least 2. Give not met when it is less.

# mutation.notation, class.assignment
measured = [
    ("G19F", "not met"),
    ("C14W", "met"),
    ("G12Q", "met"),
    ("D7P", "met"),
    ("N16Q", "not met"),
    ("G24V", "not met"),
    ("F8Q", "met"),
    ("N23S", "met"),
    ("G24L", "met"),
    ("R21V", "met"),
    ("G19P", "met"),
]
